The reported measurements were obtained from patent US20210246166A1.

Target: T1, recombinant human MASP1 active protease (amino acids 297-699, C-terminal His Tag) (human, UniProt P48740 297-699)
T1 sequence: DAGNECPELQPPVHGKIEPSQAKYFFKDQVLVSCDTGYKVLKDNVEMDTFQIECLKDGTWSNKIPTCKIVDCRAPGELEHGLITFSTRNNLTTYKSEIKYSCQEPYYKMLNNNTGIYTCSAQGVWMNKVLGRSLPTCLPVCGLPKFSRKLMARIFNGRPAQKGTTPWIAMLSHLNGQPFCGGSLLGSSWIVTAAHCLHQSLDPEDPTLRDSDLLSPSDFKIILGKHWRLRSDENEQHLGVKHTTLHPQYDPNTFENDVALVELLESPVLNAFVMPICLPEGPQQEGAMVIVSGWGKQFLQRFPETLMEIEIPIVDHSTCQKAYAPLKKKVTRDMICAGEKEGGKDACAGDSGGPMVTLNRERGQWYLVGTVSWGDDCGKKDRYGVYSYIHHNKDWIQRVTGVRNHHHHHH
Experiment: cell-based or functional assay
Bridge positions count the residues as written; N and C are the ends. Square brackets hold non-standard residues; d marks the D form. Ends that are not written are not given here. * marks the point of attachment. Dihydroorotyl(S) = O=C1C[C@@H](C(=O)*)NC(=O)N1; tBuAla = CC(C)(C)C[C@H](N)C(=O)O; Pen = CC(C)(S)[C@H](N)C(=O)O; NMeC = CN[C@@H](CS)C(=O)O
measuredProperty: human MASP1 IC50 (nM)
I only need the number, in nM, no unit after it.

[[record]]
binder = "HICSRS[tBuAla]PPI[Pen]IPD-NH2 (disulfide 3-11; N-terminus assumed; SMILES CC[C@H](C)[C@H](NC(=O)[C@@H](N)Cc1c[nH]cn1)C(=O)N[C@H]1CSSC(C)(C)[C@@H](C(=O)N[C@H](C(=O)N2CCC[C@H]2C(=O)N[C@@H](CC(=O)O)C(N)=O)[C@@H](C)CC)NC(=O)[C@H]([C@@H](C)CC)NC(=O)[C@@H]2CCCN2C(=O)[C@@H]2CCCN2C(=O)[C@H](CC(C)(C)C)NC(=O)[C@H](CO)NC(=O)[C@H](CCCNC(=N)N)NC(=O)[C@H](CO)NC1=O) [HIC+SRS-((tBu)A)-PPI-(Pen)+IPD-NH2]"
measuredproperty = "human MASP1 IC50"
readoutnumber = 3.2


Prompt line: Note down human MASP1 IC50 recorded for [Dihydroorotyl(S)]ICSRS[tBuAla]PPI[Pen]IPD-NH2 (disulfide 3-11; SMILES CC[C@H](C)[C@H](NC(=O)[C@@H]1CC(=O)NC(=O)N1)C(=O)N[C@H]1CSSC(C)(C)[C@@H](C(=O)N[C@H](C(=O)N2CCC[C@H]2C(=O)N[C@@H](CC(=O)O)C(N)=O)[C@@H](C)CC)NC(=O)[C@H]([C@@H](C)CC)NC(=O)[C@@H]2CCCN2C(=O)[C@@H]2CCCN2C(=O)[C@H](CC(C)(C)C)NC(=O)[C@H](CO)NC(=O)[C@H](CCCNC(=N)N)NC(=O)[C@H](CO)NC1=O) [(Hoo)-IC+SRS-((tBu)A)-PPI-(Pen)+IPD-NH2]
Response line: 3

Prompt line: Note down human MASP1 IC50 recorded for AICSRS[tBuAla]PPI[NMeC]I-NH2 (disulfide 3-11; N-terminus assumed; SMILES CC[C@H](C)[C@H](NC(=O)[C@@H]1CSSC[C@H](NC(=O)[C@@H](NC(=O)[C@H](C)N)[C@@H](C)CC)C(=O)N[C@@H](CO)C(=O)N[C@@H](CCCNC(=N)N)C(=O)N[C@@H](CO)C(=O)N[C@@H](CC(C)(C)C)C(=O)N2CCC[C@H]2C(=O)N2CCC[C@H]2C(=O)N[C@@H]([C@@H](C)CC)C(=O)N1C)C(N)=O) [AIC+SRS-((tBu)A)-PPI-((N-Me)C)+I-NH2]
Response line: 1.5

Prompt line: Note down human MASP1 IC50 recorded for TICSRS[tBuAla]PPI[Pen]IPD-OH (disulfide 3-11; N-terminus assumed; SMILES CC[C@H](C)[C@H](NC(=O)[C@@H](N)[C@@H](C)O)C(=O)N[C@H]1CSSC(C)(C)[C@@H](C(=O)N[C@H](C(=O)N2CCC[C@H]2C(=O)N[C@@H](CC(=O)O)C(=O)O)[C@@H](C)CC)NC(=O)[C@H]([C@@H](C)CC)NC(=O)[C@@H]2CCCN2C(=O)[C@@H]2CCCN2C(=O)[C@H](CC(C)(C)C)NC(=O)[C@H](CO)NC(=O)[C@H](CCCNC(=N)N)NC(=O)[C@H](CO)NC1=O) [TIC+SRS-((tBu)A)-PPI-(Pen)+IPD-OH]
Response line: 3.7
